For each record, write down the corresponding Ki.
Target: Human Histamine H3 Receptor (Homo sapiens, UniProt Q9Y5N1)
Construct: expressed in transfected cells; host or cells: HEK293T (stably transfected; membranes prepared from the cells)
Sequence (Q9Y5N1 whole entry): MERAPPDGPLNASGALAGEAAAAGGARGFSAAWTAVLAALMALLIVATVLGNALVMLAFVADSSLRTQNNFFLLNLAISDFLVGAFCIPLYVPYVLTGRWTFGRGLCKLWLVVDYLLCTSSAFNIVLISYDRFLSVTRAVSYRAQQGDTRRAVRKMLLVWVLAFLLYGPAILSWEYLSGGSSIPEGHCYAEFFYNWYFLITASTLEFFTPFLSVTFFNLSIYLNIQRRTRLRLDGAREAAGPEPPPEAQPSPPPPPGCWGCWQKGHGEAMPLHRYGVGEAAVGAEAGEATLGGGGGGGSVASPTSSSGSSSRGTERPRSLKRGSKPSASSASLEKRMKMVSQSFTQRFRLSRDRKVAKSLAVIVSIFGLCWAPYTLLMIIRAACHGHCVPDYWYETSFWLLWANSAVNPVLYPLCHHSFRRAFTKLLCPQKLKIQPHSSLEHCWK
Assay: Methyl histamine binding in human histamine H3 receptor cell line
Settings: read-out: H3 Binding Ki
Protocol: Evaluation of Methyl Histamine Binding in Human Histamine H3 Receptor Cell Line The affinity of test compounds for the histamine 3 (H3) receptor is evaluated in the following manner. […] The resulting pellets are stored at −80° C. until ready for use. […] Protein concentration (ug/ul) is determined using the Micro-BCA Protein Determination. […] Non-specific binding is determined in the presence of 10 uM clobenpropit. […] The CPM per well is measured on a Packard Top Count NXT. Ki values are determined in nM. […]
Counter-ions that a name gives are not always drawn.

C[C@@H]1CCCN1CCN1CCc2cc(-n3cnc4ccccc43)ccc2C1=O [Example 154, hydrochloride] = < 0.01 µM
N#Cc1ccc2c(ccn2-c2ccc3c(c2)CCN(CCN2CCCC2)C3=O)c1 [Example 35, Hydrochloride] = < 0.01 µM
O=C1c2ccc(-c3ccc(F)cc3)cc2CCN1CCN1CCCCC1 [Example 43, hydrochloride] = < 0.01 µM
CCN(CC)C(=O)c1ccc(-c2ccc3c(c2)CCN(CCN2CCCC2)C3=O)cc1 = < 0.01 µM
CNC(=O)c1ccc(-c2ccc3c(c2)CN(CCN2CCC[C@H]2C)C3=O)cc1 = 0.0501 to 0.1 µM
O=C1c2ccc(-c3ccccc3)cc2CCN1CCN1CCCC1 = 0.0101 to 0.025 µM
CCNC(=O)c1ccc(-c2ccc3c(c2)CCN(CCN2CCCC2)C3=O)cc1 = < 0.01 µM

Q: Name the recorded Ki for `O=C(NC1CCCC1)c1ccc(-c2ccc3c(c2)CCN(CCN2CCCC2)C3=O)cc1` .
Ans: < 0.01 µM
